Test: Human HepG2 cell viability assay in 384 well format
Type: toxicity, cell-based
Design: dose 125 nL, time 70.5 hour; concentration not given beside the values
Conditions: HepG2 cells, read-out: Inhibition
PARAMETER: cytotoxicity at 70.5 h (%)

{"COMPOUND": "Cc1n[nH]c(C2CN(CC(=O)NCCc3ccsc3)CCO2)n1 (centres undefined)", "NUMERIC RESULT": -1.23}
{"COMPOUND": "Cc1ccsc1C(=O)N1CC2CC1(C(=O)NCc1ccco1)C2", "NUMERIC RESULT": 13.9}
{"COMPOUND": "O=C1OCCN1CC(=O)N1C[C@H]2CC[C@@H]1CN(C(=O)c1ccccn1)C2", "NUMERIC RESULT": -7.06}
{"COMPOUND": "CN(Cc1noc(C2CC2)n1)C1CCN(Cc2cccc(F)c2F)C1 (centres undefined)", "NUMERIC RESULT": 15.9}
